# credit: patent US10149835B2

Property: EC50; scope: individual compounds
Target: UniProtKB Q96RI1
Sequence (Q96RI1 whole entry, the tested form may be a part): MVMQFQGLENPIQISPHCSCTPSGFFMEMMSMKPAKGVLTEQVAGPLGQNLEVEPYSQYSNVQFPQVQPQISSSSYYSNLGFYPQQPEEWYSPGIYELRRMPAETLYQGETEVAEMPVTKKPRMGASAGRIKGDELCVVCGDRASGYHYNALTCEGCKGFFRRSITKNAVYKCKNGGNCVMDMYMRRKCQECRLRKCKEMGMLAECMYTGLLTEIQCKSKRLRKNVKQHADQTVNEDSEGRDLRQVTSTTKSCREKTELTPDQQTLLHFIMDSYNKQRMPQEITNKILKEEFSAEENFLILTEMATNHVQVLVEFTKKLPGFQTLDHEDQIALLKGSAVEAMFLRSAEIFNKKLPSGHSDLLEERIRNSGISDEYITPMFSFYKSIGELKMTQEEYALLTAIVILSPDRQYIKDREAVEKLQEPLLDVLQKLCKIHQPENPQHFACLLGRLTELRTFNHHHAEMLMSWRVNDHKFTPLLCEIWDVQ
Assay: Human FXR (NR1H4) Assay (Gal4 promoter driven luciferase reporter, Indigo Bioscience kit)
Conditions: CHO reporter cells expressing human NR1H4; 22 hours incubation; potency ranges
Experimental: To a solution of compound (1) (211 mg, 0.37 mmol) in toluene (3 ml) was added dropwise triethylamine (0.10 ml, 0.74 mmol) and diphenyl phosphorazidate (0.087 ml, 0.40 mmol). […] Determination of a ligand mediated Gal4 promoter driven transactivation to quantify ligand binding mediated activation of FXR. […] The principle application of this reporter assay system is to quantify functional activity of human FXR. […] Luminescence intensity of the reaction is quantified using a plate-reading luminometer, Envision. […]

COMPOUND | OBSERVED VALUE
CN(C)S(=O)(=O)NC(=O)c1ccc(N2C3CC[C@H]2CC(OCc2c(-c4c(Cl)cccc4Cl)noc2C2CC2)C3)c(F)c1 (some centres unmarked) | < 0.1 µM
O=C(NS(=O)(=O)C1CC1)c1ccc(N2C3CC[C@H]2CC(OCc2c(-c4c(Cl)cccc4Cl)noc2C2CC2)C3)c(F)c1 (some centres unmarked) | < 0.1 µM
O=C(NS(=O)(=O)C1CC1)c1ccc2nc(N3C4CC[C@H]3CC(OCc3c(-c5c(Cl)cccc5Cl)noc3C3CC3)C4)sc2c1 (some centres unmarked) | < 0.1 µM

Summary for this compound, CC(C)(C)c1ccc(S(=O)(=O)NC(=O)c2ccc3nc(N4C5CC[C@H]4CC(OCc4c(-c6c(Cl)cccc6Cl)noc4C4CC4)C5)sc3c2)cc1 (some centres unmarked) : EC50 is < 0.1 µM

Summary for this compound, CC(C)(C)c1ccc(S(=O)(=O)NC(=O)c2ccc(N3C4CC[C@H]3CC(OCc3c(-c5c(Cl)cccc5Cl)noc3C3CC3)C4)c(F)c2)cc1 (some centres unmarked) : EC50 is < 0.1 µM
